// provenance: patent US20230257396A1

assayed system: kinases (Homo sapiens, UniProt P07949, V804L)
Construct: purchased Eurofins/DiscoveRx; host or cells: E. coli BL21-derived host (T7 phage display) for most kinases; HEK-293 for the rest
Sequence (P07949 29-1114 V804L): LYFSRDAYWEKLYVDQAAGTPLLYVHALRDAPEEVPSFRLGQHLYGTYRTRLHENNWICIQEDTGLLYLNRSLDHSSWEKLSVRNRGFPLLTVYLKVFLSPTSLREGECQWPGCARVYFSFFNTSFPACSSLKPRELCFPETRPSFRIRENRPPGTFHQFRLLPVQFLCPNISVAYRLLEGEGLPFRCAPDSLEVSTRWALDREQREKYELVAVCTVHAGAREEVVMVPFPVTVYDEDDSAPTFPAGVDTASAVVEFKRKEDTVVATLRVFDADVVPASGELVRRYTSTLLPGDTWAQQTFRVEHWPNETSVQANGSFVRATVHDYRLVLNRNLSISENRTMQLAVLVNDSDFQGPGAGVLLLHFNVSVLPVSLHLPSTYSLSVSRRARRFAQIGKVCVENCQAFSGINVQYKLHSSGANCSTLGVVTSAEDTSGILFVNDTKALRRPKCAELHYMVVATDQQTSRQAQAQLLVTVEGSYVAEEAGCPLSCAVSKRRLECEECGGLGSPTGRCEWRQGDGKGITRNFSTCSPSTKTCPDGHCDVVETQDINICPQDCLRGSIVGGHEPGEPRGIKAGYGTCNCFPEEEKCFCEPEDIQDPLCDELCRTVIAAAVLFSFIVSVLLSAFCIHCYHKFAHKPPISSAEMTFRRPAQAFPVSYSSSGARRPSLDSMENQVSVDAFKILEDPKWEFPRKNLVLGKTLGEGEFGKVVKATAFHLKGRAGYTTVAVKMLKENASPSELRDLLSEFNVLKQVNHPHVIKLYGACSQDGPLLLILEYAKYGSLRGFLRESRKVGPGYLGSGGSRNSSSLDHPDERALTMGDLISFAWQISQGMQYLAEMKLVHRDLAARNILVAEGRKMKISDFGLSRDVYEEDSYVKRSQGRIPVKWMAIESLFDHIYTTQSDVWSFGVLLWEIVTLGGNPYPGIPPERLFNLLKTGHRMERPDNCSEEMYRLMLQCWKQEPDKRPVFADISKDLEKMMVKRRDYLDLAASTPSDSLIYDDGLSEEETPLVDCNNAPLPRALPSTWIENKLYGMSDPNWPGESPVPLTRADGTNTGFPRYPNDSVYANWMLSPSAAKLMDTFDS
assay summary: KINOMEscan kinase binding assay (Eurofins/DiscoveRx), % Ctrl
setup conditions: target RET(V804L); 1 μM
Protocol: Kinase binding assays were performed at Eurofins/DiscoveRx using the general KINOMEscan Protocol (Fabian, M. A. et al., “A small molecule-kinase interaction map for clinical kinase inhibitors,” Nat. Biotechnol. 2005, 23(3):329-36). For most assays, kinase-tagged T7 phage strains were prepared in an E. coli host derived from the BL21 strain. […] The kinase concentration in the eluates was measured by qPCR. […]
measurement name: % Ctrl, RET(V804L)

`CN1CCSCCOc2cc3c(cc2Cl)NC(=O)/C3=C\c2[nH]ccc2C1=O` yielded % Ctrl, RET(V804L) of 6.1 % Ctrl

Just so you know, measured % Ctrl, RET(V804L) for `Cc1cc2c([nH]1)/C=C1\C(=O)Nc3cnc(cc31)-c1cn[nH]c1CNCCN(C)C2=O` came out at 0.3 % Ctrl

// sample `CN1CCOCCOc2cc3c(cc2Cl)NC(=O)/C3=C\c2[nH]ccc2C1=O` , its % Ctrl, RET(V804L) was 3.5 % Ctrl

Field % Ctrl, RET(V804L) (entry `Cc1cc2c([nH]1)/C=C1\C(=O)Nc3ccc(cc31)-c1c(C)nn(C)c1COCCN(C)C2=O` ) reads 3 % Ctrl

# molecule `Cc1nn(C)c2c1-c1ccc3c(c1)/C(=C/c1[nH]ccc1C(=O)N(C)CCCO2)C(=O)N3` ; its % Ctrl, RET(V804L) = 77 % Ctrl

% Ctrl, RET(V804L) for `Cc1cc2c([nH]1)/C=C1\C(=O)Nc3ccc(cc31)-c1c(noc1C)CNCCN(C)C2=O` is 15 % Ctrl

Value of measured % Ctrl, RET(V804L) for the entry `Cc1cc2c([nH]1)/C=C1\C(=O)Nc3cc(Cl)c(cc31)OCCO[C@@H](C(=O)N1CCN(C)CC1)CN(C)C2=O` : 83 % Ctrl
